Data origin: patent US5332726A

subject of test: fixed activated platelets (Homo sapiens, UniProt P05106+P08514)
Sequence (P08514 32-1039): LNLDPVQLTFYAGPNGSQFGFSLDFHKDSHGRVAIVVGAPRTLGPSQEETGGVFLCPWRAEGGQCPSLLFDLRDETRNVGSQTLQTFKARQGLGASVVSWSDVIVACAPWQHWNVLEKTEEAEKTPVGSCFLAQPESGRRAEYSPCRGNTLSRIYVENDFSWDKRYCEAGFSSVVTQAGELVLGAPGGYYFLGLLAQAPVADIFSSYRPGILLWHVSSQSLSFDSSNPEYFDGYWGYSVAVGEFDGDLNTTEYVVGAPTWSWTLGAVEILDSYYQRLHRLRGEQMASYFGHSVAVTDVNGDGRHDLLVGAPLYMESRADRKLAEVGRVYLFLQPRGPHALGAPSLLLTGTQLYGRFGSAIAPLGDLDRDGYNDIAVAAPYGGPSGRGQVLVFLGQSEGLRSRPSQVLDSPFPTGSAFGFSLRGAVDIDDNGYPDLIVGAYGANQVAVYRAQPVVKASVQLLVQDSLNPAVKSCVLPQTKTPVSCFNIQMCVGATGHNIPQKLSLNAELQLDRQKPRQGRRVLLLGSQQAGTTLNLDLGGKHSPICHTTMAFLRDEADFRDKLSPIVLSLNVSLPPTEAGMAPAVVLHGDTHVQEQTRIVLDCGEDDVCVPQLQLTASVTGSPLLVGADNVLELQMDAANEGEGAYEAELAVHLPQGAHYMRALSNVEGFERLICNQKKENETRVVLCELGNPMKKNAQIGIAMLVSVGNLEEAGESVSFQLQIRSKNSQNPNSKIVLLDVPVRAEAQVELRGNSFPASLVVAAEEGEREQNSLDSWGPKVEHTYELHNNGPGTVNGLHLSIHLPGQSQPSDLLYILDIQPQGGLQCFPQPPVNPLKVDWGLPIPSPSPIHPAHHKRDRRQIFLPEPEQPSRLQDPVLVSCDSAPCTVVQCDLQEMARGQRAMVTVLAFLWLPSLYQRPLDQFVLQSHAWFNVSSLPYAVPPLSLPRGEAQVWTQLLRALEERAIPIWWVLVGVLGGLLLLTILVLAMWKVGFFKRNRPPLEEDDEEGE
Sequence (P05106 27-788): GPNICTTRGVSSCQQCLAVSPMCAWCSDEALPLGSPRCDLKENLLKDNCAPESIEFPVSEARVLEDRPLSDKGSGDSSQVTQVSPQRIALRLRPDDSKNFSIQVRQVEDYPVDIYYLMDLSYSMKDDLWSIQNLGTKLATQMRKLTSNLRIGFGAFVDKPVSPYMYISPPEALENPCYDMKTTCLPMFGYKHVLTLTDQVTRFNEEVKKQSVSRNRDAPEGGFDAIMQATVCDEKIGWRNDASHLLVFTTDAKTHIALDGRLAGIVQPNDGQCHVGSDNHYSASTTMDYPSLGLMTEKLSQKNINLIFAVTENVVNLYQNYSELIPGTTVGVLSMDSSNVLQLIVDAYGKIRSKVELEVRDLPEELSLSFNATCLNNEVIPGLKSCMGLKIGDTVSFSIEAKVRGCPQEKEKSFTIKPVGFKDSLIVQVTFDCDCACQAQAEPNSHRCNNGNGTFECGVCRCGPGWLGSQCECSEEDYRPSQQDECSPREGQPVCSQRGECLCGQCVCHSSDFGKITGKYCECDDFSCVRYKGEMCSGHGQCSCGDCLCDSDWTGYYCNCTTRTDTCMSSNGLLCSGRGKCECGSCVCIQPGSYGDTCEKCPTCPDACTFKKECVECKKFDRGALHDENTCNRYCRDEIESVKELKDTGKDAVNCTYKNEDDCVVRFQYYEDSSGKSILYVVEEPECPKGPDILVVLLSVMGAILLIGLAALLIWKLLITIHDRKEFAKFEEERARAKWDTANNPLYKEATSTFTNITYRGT
experiment notes: Platelet Aggregation Assay (fibrinogen-mediated aggregation of fixed-activated platelets)
Format: cell-based
measurement conditions: read-out: Inhibition of Fibrinogen Mediated Platelet Aggregation % inhibition at 25 μM
outcome measure: inhibition at 25 µM (%)

[[record]]
structure_as_smiles = "CCN(CC(=O)N[C@@H](CC(=O)O)C(=O)N[C@@H](CC(C)C)C(=O)O)C(=O)CCCCNC(=N)N"
outcome_measure = "inhibition at 25 µM"
recorded_number = 90


a. CC(C)C[C@@H](CCC(=O)O)NC(=O)[C@H](CC(=O)O)NC(=O)CCCCCCCCNC(=N)N
b. CCN(CC(=O)N[C@@H](CC(=O)O)C(=O)N[C@H](C(=O)O)C(C)C)C(=O)CCCCCCn1ccnc1
c. CC(C)[C@H](NC(=O)[C@H](CC(=O)O)NC(=O)CNC(=O)CCCNC(=N)N)C(=O)O
Put the items in order so that reported inhibition at 25 µM rises from first to last. Please, when replying, give the labels in the order that was requested. a, c, b
(a: 13%, c: 43%, b: 82%)

---

subject of test: thrombin-stimulated platelets (Homo sapiens, UniProt P05106+P08514)
experiment notes: Fibrinogen-Binding Assay (125I-fibrinogen binding to platelets)
measurement conditions: 125I-fibrinogen 0.176 μmol/liter, thrombin-stimulated platelets; read-out: Inhibition of 125I-Fibrinogen Binding to Platelets IC50
outcome measure: IC50 (nM)

[[record]]
compound = "CC(C)C[C@@H](CCC(=O)N[C@@H](CCCNC(=N)N)C(=O)O)NC(=O)[C@H](CC(=O)O)NC(=O)CCCCCCCCNC(=N)N"
recorded_number = 2100

[[record]]
compound = "CC(C)[C@H](NC(=O)[C@H](CC(=O)O)NC(=O)CN(C)C(=O)CCCCNC(=N)N)C(=O)O"
recorded_number = 1000

[[record]]
compound = "CN(CC(=O)N[C@@H](CC(=O)O)C(=O)N[C@@H](Cc1ccc(O)cc1)C(=O)O)C(=O)CCCCCNC(=N)N"
recorded_number = 3600

[[record]]
compound = "N=C(N)NCCCCCCCCC(=O)N[C@@H](CC(=O)O)C(=O)N[C@@H](CCCNC(=N)N)C(=O)N[C@@H](CCCNC(=N)N)C(=O)O"
recorded_number = 15000

[[record]]
compound = "CCc1nccn1CCCCCC(=O)N(C)CC(=O)N[C@@H](CC(=O)O)C(=O)N[C@H](C(=O)O)C(C)C"
recorded_number = 313


I. CCN(CC(=O)N[C@@H](CC(=O)O)C(=O)N[C@@H](CC(C)C)C(=O)O)C(=O)CCCCCNC(=N)N
II. CC(C)[C@H](NC(=O)[C@H](CC(=O)O)NC(=O)CNC(=O)CCCCCNC(=N)N)C(=O)O
III. CC(C)C[C@H](NC(=O)[C@H](CC(=O)O)NC(=O)CCCCCCCCNC(=N)N)C(=O)O
IV. CC[C@H](C)[C@H](NC(=O)[C@H](CC(=O)O)NC(=O)CN(CC)C(=O)CCCCCNC(=N)N)C(=O)O
V. CCC(C)COC(=O)[C@H](CCCNC(=N)N)NC(=O)[C@H](CC(=O)O)NC(=O)CCCCCCCCNC(=N)N (some centres unmarked)
Task for the reader: rank each entry by its IC50, from the minimum upward. Answer by listing the labels in the requested order. IV, V, III, II, I

---

subject of test: thrombin-stimulated platelets (Homo sapiens, UniProt P05106+P08514)
experiment notes: Fibrinogen-Binding Assay (125I-fibrinogen binding to platelets)
measurement conditions: 125I-fibrinogen 0.176 μmol/liter, thrombin-stimulated platelets; read-out: Inhibition of 125I-Fibrinogen Binding to Platelets IC50
pIC50: −log10 of the molar value.
outcome measure: pIC50

Solved entries (count: 2):
[[record]]
compound = "CCN(CC(=O)N[C@@H](CC(=O)O)C(=O)N[C@H](C(=O)O)C(C)C)C(=O)CCCCCn1ccnc1C"
recorded_number = 6.46

[[record]]
compound = "CCN(CC(=O)N[C@@H](CC(=O)O)C(=O)N[C@H](C(=O)O)C(C)C)C(=O)CCCNC(=N)N"
recorded_number = 6.35


1. CC(C)[C@H](NC(=O)[C@H](CC(=O)O)NC(=O)CNC(=O)CCCCCn1ccnc1)C(=O)O
2. CC[C@H](C)[C@H](NC(=O)[C@H](CC(=O)O)NC(=O)CCCCCCCCNC(=N)N)C(=O)O
3. CCN(CC(=O)N[C@@H](CC(=O)O)C(=O)N[C@H](C(=O)O)C(C)C)C(=O)CCCCCn1ccnc1
4. CC(C)CCOC(=O)[C@H](CCCNC(=N)N)NC(=O)[C@H](CC(=O)O)NC(=O)CCCCCCCCNC(=N)N
Rank ascending by pIC50. State the ranking by listing the labels in the requested order. 1, 3, 2, 4
(1: 5.55, 3: 6.05, 2: 6.42, 4: 6.82)

I. CC(C)[C@H](NC(=O)[C@H](CC(=O)O)NC(=O)CCCCCCn1ccnc1)C(=O)O
II. CC(C)[C@H](NC(=O)[C@H](CC(=O)O)NC(=O)CCCCCCCCN)C(=O)O
III. CC(C)[C@H](NC(=O)[C@H](CC(=O)O)NC(=O)CCCCCCCCNC(=N)N)C(=O)O
IV. CC(C)[C@H](NC(=O)[C@H](CC(=O)O)NC(=O)CN(C(=O)CCCCCNC(=N)N)C1CCCC1)C(=O)O
V. CC(C)CN(CC(=O)N[C@@H](CC(=O)O)C(=O)N[C@H](C(=O)O)C(C)C)C(=O)CCCCCNC(=N)N
# sort list by recorded pIC50, greatest to least # answer = labels listed in requested order V, III, IV, I, II
(V: 7.00, III: 6.70, IV: 6.06, I: 5.70, II: 4.52)

1. CCN(CC(=O)N[C@@H](CC(=O)O)C(=O)N[C@@H](Cc1c[nH]c2ccccc12)C(=O)O)C(=O)CCCCCNC(=N)N
2. N=C(N)NCCCCCC=CC(=O)N[C@@H](CC(=O)O)C(=O)N[C@@H](CCCNC(=N)N)C(=O)O
3. CC(C)[C@H](NC(=O)[C@H](CC(=O)O)NC(=O)CN(C(=O)CCCCCNC(=N)N)C(C)C)C(=O)O
4. CC(C)[C@H](NC(=O)[C@H](CC(=O)O)NC(=O)CN(C)C(=O)CCCNC(=N)N)C(=O)O
Ranking field: pIC50; order: falling. In your reply, arrange the labels in the requested order. 1, 2, 3, 4

---

subject of test: fixed activated platelets (Homo sapiens, UniProt P05106+P08514)
experiment notes: Platelet Aggregation Assay (fibrinogen-mediated aggregation of fixed-activated platelets)
Format: cell-based
measurement conditions: fixed activated platelets, human fibrinogen 250 μg/ml; read-out: Inhibition of Fibrinogen Mediated Platelet Aggregation IC50
pIC50: −log10 of the molar value. Non-standard residues stand in square brackets, D forms with d. Residues, ends and D or L forms follow the SMILES beside them. Sar = CNCC(=O)O
outcome measure: pIC50

For orientation, consider the following solved cases.
[[record]]
compound = "CN(CC(=O)N[C@@H](CC(=O)O)C(=O)N[C@@H](CCCCN)C(=O)O)C(=O)CCCCCNC(=N)N"
subject_of_test = "fixed activated platelets (Homo sapiens, UniProt P05106+P08514)"
recorded_number = 5.39

[[record]]
compound = "CC(C)[C@H](NC(=O)[C@H](CC(=O)O)NC(=O)CN(C)C(=O)[C@@H](N)CCCNC(=N)N)C(=O)O [L-arginylsarcosyl-L-aspartyl-L-valine] (H-R[Sar]DV-OH)"
subject_of_test = "fixed activated platelets (Homo sapiens, UniProt P05106+P08514)"
recorded_number = 4.85


I. CC(C)COC(=O)[C@H](CCCNC(=N)N)NC(=O)[C@H](CC(=O)O)NC(=O)CCCCCCCCNC(=N)N
II. CC(C)CNC(=O)[C@H](CC(=O)O)NC(=O)CCCCCCCNC(=N)N
Between the two listed entries I and II , which has its pIC50 at the higher number? Identify your pick by its label. I

---

subject of test: fixed activated platelets (Homo sapiens, UniProt P05106+P08514)
experiment notes: Platelet Aggregation Assay (fibrinogen-mediated aggregation of fixed-activated platelets)
Assay type: cell-based
measurement conditions: fixed activated platelets, human fibrinogen 250 μg/ml; read-out: Inhibition of Fibrinogen Mediated Platelet Aggregation IC50
outcome measure: IC50 (µM)

[[record]]
compound = "CC(C)[C@H](NC(=O)[C@H](CC(=O)O)NC(=O)CN(C)C(=O)CCCCNC(=N)N)C(=O)O"
subject_of_test = "fixed activated platelets (Homo sapiens, UniProt P05106+P08514)"
recorded_number = 0.52

[[record]]
compound = "CC(C)[C@H](NC(=O)[C@H](CC(=O)O)NC(=O)CN(C)C(=O)CCCCn1ccnc1)C(=O)O"
subject_of_test = "fixed activated platelets (Homo sapiens, UniProt P05106+P08514)"
recorded_number = 1.5

[[record]]
compound = "CCC(C)COC(=O)[C@H](CCCNC(=N)N)NC(=O)[C@H](CC(=O)O)NC(=O)CCCCCCCCNC(=N)N (some centres unmarked)"
subject_of_test = "fixed activated platelets (Homo sapiens, UniProt P05106+P08514)"
recorded_number = 0.73

[[record]]
compound = "CC(C)[C@H](NC(=O)[C@H](CC(=O)O)NC(=O)CN(C)C(=O)CCCCCn1ccnc1-c1ccccc1)C(=O)O"
subject_of_test = "fixed activated platelets (Homo sapiens, UniProt P05106+P08514)"
recorded_number = 5.6

[[record]]
compound = "CC(C)[C@H](NC(=O)[C@H](CC(=O)O)NC(=O)CN(C)C(=O)CCCNC(=N)N)C(=O)O"
subject_of_test = "fixed activated platelets (Homo sapiens, UniProt P05106+P08514)"
recorded_number = 10.8


a. CC[C@H](C)[C@H](NC(=O)[C@H](CC(=O)O)NC(=O)CCCCCCCCNC(=N)N)C(=O)N[C@@H](CCCNC(=N)N)C(=O)O
b. N=C(N)NCCC[C@H](N)C(=O)NCC(=O)N[C@@H](CC(=O)O)C(=O)OCc1ccccc1
Lowest IC50? choose a or b # respond with the chosen item's label a
